The reported measurements were obtained from ChEMBL document CHEMBL1909046.

Molecular target: UniProt P08912
Sequence (P08912 whole entry): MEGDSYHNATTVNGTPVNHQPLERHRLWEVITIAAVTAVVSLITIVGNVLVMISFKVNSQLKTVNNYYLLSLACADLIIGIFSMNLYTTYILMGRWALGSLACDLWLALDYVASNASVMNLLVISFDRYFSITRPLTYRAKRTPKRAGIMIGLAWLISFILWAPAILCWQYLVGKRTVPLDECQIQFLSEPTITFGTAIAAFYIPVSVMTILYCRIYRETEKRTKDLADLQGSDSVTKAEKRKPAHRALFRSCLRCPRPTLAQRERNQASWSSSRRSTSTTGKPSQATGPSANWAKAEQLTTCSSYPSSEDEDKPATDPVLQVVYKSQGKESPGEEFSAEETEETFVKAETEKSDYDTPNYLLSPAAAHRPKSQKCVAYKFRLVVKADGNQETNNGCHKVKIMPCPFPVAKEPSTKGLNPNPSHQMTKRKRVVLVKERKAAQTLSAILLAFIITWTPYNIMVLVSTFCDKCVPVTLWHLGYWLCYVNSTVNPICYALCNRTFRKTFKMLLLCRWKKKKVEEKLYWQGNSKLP
Type: cell membranes, CHO-K1, Membrane
Details: cho-k1; note: in other assays of this panel Not Active means under 50% inhibition at 10 µM
MEASURED_ENDPOINT: IC50

- COMPOUND: "COc1ccc(C(=O)N2CCCC2=O)cc1"
  MEASURED_ENDPOINT: "IC50"
  RECORDED_RESULT: "Not Active"
- COMPOUND: "C[C@@H]1CC[C@@]2(OC1)O[C@H]1[C@@H](O)[C@H]3[C@@H]4CC[C@H]5C[C@@H](O[C@@H]6O[C@H](CO)[C@H](O[C@@H]7O[C@H](CO)C(O)[C@H](O[C@@H]8OC[C@@H](O)[C@H](O)[C@H]8O)[C@H]7O[C@@H]7O[C@H](CO)[C@H](O)[C@H](O[C@@H]8O[C@H](CO)[C@@H](O)[C@H](O)[C@H]8O)[C@H]7O)[C@H](O)[C@H]6O)[C@H](O)C[C@]5(C)[C@H]4CC[C@]3(C)[C@H]1[C@@H]2C (some centres not stated)"
  MEASURED_ENDPOINT: "IC50"
  RECORDED_RESULT: "Not Active"
- COMPOUND: "NCCCC(O)(P(=O)(O)O)P(=O)(O)O"
  MEASURED_ENDPOINT: "IC50"
  RECORDED_RESULT: "Not Active"
- COMPOUND: "O=C1Nc2ccc(Cl)cc2C(c2ccccc2Cl)=NC1O (configuration not stated)"
  MEASURED_ENDPOINT: "IC50"
  RECORDED_RESULT: "Not Active"
- COMPOUND: "NC(=O)C[S+]([O-])C(c1ccccc1)c1ccccc1 (configuration not stated)"
  MEASURED_ENDPOINT: "IC50"
  RECORDED_RESULT: "Not Active"
- COMPOUND: "O=C(c1ccccc1C(F)(F)F)N1CCC(Cc2ccccc2)CC1"
  MEASURED_ENDPOINT: "IC50"
  RECORDED_RESULT: "Not Active"
- COMPOUND: "O=C1C(CC[S+]([O-])c2ccccc2)C(=O)N(c2ccccc2)N1c1ccccc1 (configuration not stated)"
  MEASURED_ENDPOINT: "IC50"
  RECORDED_RESULT: "Not Active"
- COMPOUND: "CNC1(c2ccccc2Cl)CCCCC1=O (configuration not stated)"
  MEASURED_ENDPOINT: "IC50"
  RECORDED_RESULT: "Not Active"
- COMPOUND: "Clc1ccc(COC(Cn2ccnc2)c2ccc(Cl)cc2Cl)cc1 (configuration not stated)"
  MEASURED_ENDPOINT: "IC50"
  RECORDED_RESULT: "Not Active"
- COMPOUND: "CCCCNc1ccc(C(=O)OCCN(C)C)cc1"
  MEASURED_ENDPOINT: "IC50"
  RECORDED_RESULT: "Not Active"
- COMPOUND: "O.O.O.O.O.O.[Cl-].[Cl-].[Sr+2] [STRONTIUM CHLORIDE HEXAHYDRATE]"
  MEASURED_ENDPOINT: "IC50"
  RECORDED_RESULT: "Not Active"
- COMPOUND: "CCCNCC(O)COc1ccccc1C(=O)CCc1ccccc1 (configuration not stated)"
  MEASURED_ENDPOINT: "IC50"
  RECORDED_RESULT: "Not Active"
- COMPOUND: "O=C(O)CCNC(=O)c1ccccc1"
  MEASURED_ENDPOINT: "IC50"
  RECORDED_RESULT: "Not Active"
- COMPOUND: "CC(=O)Oc1ccc(C(c2ccc(OC(C)=O)cc2)c2ccccn2)cc1"
  MEASURED_ENDPOINT: "IC50"
  RECORDED_RESULT: "Not Active"
- COMPOUND: "CCN(CC)CCNC(=O)c1cc(S(C)(=O)=O)ccc1OC [TIAPRIDE]"
  MEASURED_ENDPOINT: "IC50"
  RECORDED_RESULT: "Not Active"
- COMPOUND: "COC(=O)Nc1nc2ccc([S+]([O-])c3ccccc3)cc2[nH]1 (configuration not stated)"
  MEASURED_ENDPOINT: "IC50"
  RECORDED_RESULT: "Not Active"
- COMPOUND: "C#CC1(O)CC[C@H]2[C@@H]3CCC4=CC(=O)CC[C@@H]4[C@H]3CC[C@@]21CC (some centres not stated)"
  MEASURED_ENDPOINT: "IC50"
  RECORDED_RESULT: "Not Active"
